All figures here come from PubChem BioAssay (NCI).

system: MCF7 breast; experiment: NCI-60 one-dose screen, 48 h; conditions: 10 µM
This is part of a sample that, as a whole, favours compounds with a hit. Of some 83,000 tested, about 20% had one in any assay. Active and inactive are the calls of the source. Rule for the calls: active = growth percent below 10; inactive = the rest.
// allowed return values: active, inactive

Worked set:
compound	measurementTarget	label
O=Nc1c(O)ccc2ccccc12.O=Nc1c(O)ccc2ccccc12.O=Nc1c([O-])ccc2ccccc12.[Fe+3]	MCF7 breast	inactive
Cc1ccc(F)cc1NC(=O)c1cc(Cl)ccc1Nc1ccccc1	MCF7 breast	inactive
COC(=O)/C(=C\c1c(-c2ccccc2)[nH]c2ccccc12)S(C)(=O)=O	MCF7 breast	inactive
Cc1nc2ccccc2c(/C=C/c2ccccc2)c1C(=O)/C=C/c1ccc(Cl)cc1	MCF7 breast	inactive
CCOC(=O)c1cnc2c(C)cccc2c1Nc1ccc(C(C)=O)cc1	MCF7 breast	active
COc1ccc(/C=C2\N=C(c3ccccc3)N(c3ccc(-c4nc5ccc(C)cc5s4)cc3)C2=O)cc1	MCF7 breast	inactive
COc1nccc2cc3c(=O)n4c(cc5ccccc54)c(=O)n3c12	MCF7 breast	inactive
O=C(/C=C/c1ccc(Cl)cc1)c1ccc(Nc2nc(NCCO)nc(N3CCOCC3)n2)cc1	MCF7 breast	active

Qu. Recorded call for Cc1cc2c(c(C)c1Cl)C(=O)/C(=C/c1ccco1)O2 ?
Ans. inactive

Qu. Recorded call for COc1cc(C(C)n2cc(-c3ccccc3)nn2)ccc1OC1CCCCC1 (stereo not drawn) ?
Ans. inactive

Qu. Recorded call for O=C(Nc1ccccc1O)c1ccc(Oc2cccc(C(=O)Nc3ccccc3O)c2)cc1 ?
Ans. inactive
